Ref: patent US20070020327A1

Target: HLA-A*0201 (human)
Test: competition with 125I standard peptide for purified HLA; gel filtration
pIC50: −log10 of the molar value.
test.readout: pIC50

binder: LLALFPPEGV (modifications not checked) [Peptide 1419.58 … (PAP.120.L2)]
test.readout: pIC50
quantitative.result: 8.30

I = LLWQPIPVHV (modifications not checked) [Peptide 1419.69 … (PAP.136.V10)]
II = SLSLGFLFLV (modifications not checked) [Peptide 1419.52 … (PAP.13.V10)]
III = LVCNGVLQGV (modifications not checked) [Peptide 1418.55 … (HuK2.217.V10)]
IV = KVTEFMLCAGV (modifications not checked) [Peptide 1418.71 … (HuK2.191.V11)]
Order field: pIC50 | Direction: descending (largest first) List labels; respect the requested ordering.
II, III, I, IV
